# study-system: UT-B (Homo sapiens)
# Construct: the indicator cells are red blood cells that endogenously express the UT-B urea transporter; endogenous in cells; host or cells: human red blood cells (whole venous blood, single donor)
# Sequence (Q13336 1-389): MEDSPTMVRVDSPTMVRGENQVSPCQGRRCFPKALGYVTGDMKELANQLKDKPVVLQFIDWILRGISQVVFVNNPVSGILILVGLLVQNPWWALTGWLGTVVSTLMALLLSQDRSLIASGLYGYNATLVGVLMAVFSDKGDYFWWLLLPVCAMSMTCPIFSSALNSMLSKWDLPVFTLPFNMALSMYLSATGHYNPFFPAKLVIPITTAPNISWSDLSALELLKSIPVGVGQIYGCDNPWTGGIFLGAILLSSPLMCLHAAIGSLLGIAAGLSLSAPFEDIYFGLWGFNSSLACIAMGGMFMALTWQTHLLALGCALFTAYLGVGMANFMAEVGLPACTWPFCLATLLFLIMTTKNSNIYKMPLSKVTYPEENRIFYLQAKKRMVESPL
# experimental-details: RBC lysis assay, human RBCs loaded with acetamide
# Format: cell-based
# study-conditions: Table 5, phthalazinamines; UT-B inhibitory potency
property-label: EC50 (nM)

For orientation, consider the following solved cases.
COc1ccc(-c2nnc(Oc3ccccc3)c3ccccc23)cc1 :: 2000
COc1ccc(-c2nnc(Nc3ccc(OCC(N)=O)cc3)c3ccccc23)cc1 :: 1000
Cc1ccc(-c2nnc(Nc3ccc(O)cc3)c3ccccc23)cc1S(=O)(=O)N1CCOCC1 :: 3000
CNC(=O)c1ccc(Nc2nnc(-c3ccc(C(N)=O)cc3)c3ccccc23)cc1 :: 600
CNS(=O)(=O)c1cc(-c2nnc(Nc3ccc(OCC(N)=O)cc3)c3ccccc23)ccc1C :: 2000
CC(=O)Nc1ccc(Nc2nnc(-c3ccc(O)cc3)c3ccccc23)cc1 :: 3000
CNC(=O)COc1ccc(Nc2nnc(-c3ccccc3)c3ccccc23)cc1 :: 3000
COc1ccc(Nc2nnc(-c3ccc(C(N)=O)cc3)c3ccccc23)cc1 :: 100

a: CNC(=O)COc1ccc(Nc2nnc(-c3ccc(C)cc3)c3ccccc23)cc1
b: Cc1ccc(-c2nnc(Nc3ccc(C(N)=O)cc3)c3ccccc23)cc1S(=O)(=O)N(C)C
Name the one with the greater EC50 value, either a or b as given. I would appreciate it if you answered with the label of your choice.
a
(a: 2000 nM, b: 1000 nM)

* * *

# study-system: UT-B (Homo sapiens, UniProt Q13336)
# Construct: the indicator cells are red blood cells that endogenously express the UT-B urea transporter; endogenous in cells; host or cells: human red blood cells (whole venous blood, single donor)
# experimental-details: RBC lysis assay, human RBCs loaded with acetamide
# Format: cell-based
# study-conditions: Table 5, phthalazinamines; UT-B inhibitory potency
pEC50: −log10 of the molar value.
property-label: pEC50

For orientation, consider the following solved cases.
COC(=O)c1ccc(Nc2nnc(-c3ccc(C)c(S(=O)(=O)NCCO)c3)c3ccccc23)cc1 :: 5.70
CCN(CC)C(=O)c1ccc(-c2nnc(Nc3ccc(C(=O)N(C)C)cc3)c3ccccc23)cc1 :: 5.52
CCN(CC)C(=O)c1ccc(-c2nnc(Nc3ccc(O)cc3)c3ccccc23)cc1 :: 5.30
Cc1ccc(-c2nnc(Nc3ccc(O)cc3)c3ccccc23)cc1S(=O)(=O)NC(C)(C)CO :: 5.05

P: Cc1ccc(-c2nnc(Oc3ccccc3)c3ccccc23)cc1
Q: COc1ccc(-c2nnc(Nc3ccc(-c4nc5ccccc5[nH]4)cc3)c3ccccc23)cc1
R: Cc1ccc(-c2nnc(Nc3ccc(C(N)=O)cc3)c3ccccc23)cc1S(=O)(=O)NCCO
Put the compounds in ascending order of pEC50. When ranking, write the labels in the order the request describes.
Q, R, P
(Q: 5.00, R: 5.30, P: 5.52)

P: COc1ccc(Nc2nnc(-c3ccc(O)cc3)c3ccccc23)cc1
Q: CNC(=O)COc1ccc(Nc2nnc(-c3ccc(C(=O)NCCO)cc3)c3ccccc23)cc1
Name the one with the greater pEC50 value, either P or Q as given. I would appreciate it if you answered with the label of your choice.
Q
(Q: 6.10, P: 5.70)

* * *

# study-system: UT-B (Homo sapiens)
# Construct: the indicator cells are red blood cells that endogenously express the UT-B urea transporter; endogenous in cells; host or cells: human red blood cells (whole venous blood, single donor)
# experimental-details: RBC lysis assay, human RBCs loaded with acetamide
# Type: cell-based
# study-conditions: Table 5, phthalazinamines; UT-B inhibitory potency
property-label: EC50 (nM)

For orientation, consider the following solved cases.
Cc1ccc(-c2nnc(Nc3ccc(OCC(N)=O)cc3)c3ccccc23)cc1 [ureainh-314] :: 2000
NC(=O)COc1ccc(Nc2nnc(-c3ccccc3)c3ccccc23)cc1 [ureainh-318] :: 2000
NC(=O)c1ccc(-c2nnc(Nc3ccc(S(N)(=O)=O)cc3)c3ccccc23)cc1 [ureainh-307] :: 3000

A: COc1ccc(Nc2nnc(-c3ccccc3)c3ccccc23)cc1 [ureainh-320]
B: NC(=O)c1ccc(-c2nnc(Nc3ccc(O)cc3)c3ccccc23)cc1 [ureainh-306]
Name the one with the greater EC50 value, either A or B as given. I would appreciate it if you answered with the label of your choice.
A

* * *

# study-system: UT-B (Homo sapiens)
# Construct: the indicator cells are red blood cells that endogenously express the UT-B urea transporter; endogenous in cells; host or cells: human red blood cells (whole venous blood, single donor)
# experimental-details: RBC lysis assay, human RBCs loaded with acetamide
# Format: cell-based
# study-conditions: Table 7, aminobenzimidazoles; UT-B inhibitory potency
property-label: EC50 (nM)

C=CCn1c(NCc2cc(OC)ccc2O)nc2ccccc21 :: 25000
CCCn1c(NCc2cc(Cl)ccc2O)nc2ccccc21 :: 300
CCCCn1c(NCc2cc(C)ccc2O)nc2ccccc21 :: 2000
Oc1ccccc1CNc1nc2ccccc2n1CCN1CCCCC1 :: 900
CCn1c(NCc2cc(Cl)ccc2O)nc2ccccc21 :: 400

A: CC(C)n1c(NCc2cc(Cl)ccc2O)nc2ccccc21
B: CC(C)n1c(NCc2cc(Br)ccc2O)nc2ccccc21
Form: Entry with minimum EC50 (choose one): A / B I would appreciate it if you answered with the label of your choice.
B
(B: 400 nM, A: 5000 nM)

a: CCCn1c(NCc2cc(OC)ccc2O)nc2ccccc21
b: CCn1c(NCc2cc(C)ccc2O)nc2ccccc21
c: COc1ccc(O)c(CNc2nc3ccccc3n2C(C)C)c1
# rank_down: sort by EC50, max first When ranking, write the labels in the order the request describes.
a, c, b

a: CCn1c(NC(C)c2cc(Cl)ccc2O)nc2ccccc21 (stereo not drawn)
b: C=CCn1c(NCc2cc(Br)ccc2O)nc2ccccc21
c: CCn1c(NCc2c(O)ccc3ccccc23)nc2ccccc21
# rank_down: sort by EC50, max first When ranking, write the labels in the order the request describes.
a, c, b

* * *

# study-system: UT-B (Homo sapiens)
# Construct: the indicator cells are red blood cells that endogenously express the UT-B urea transporter; endogenous in cells; host or cells: human red blood cells (whole venous blood, single donor)
# experimental-details: RBC lysis assay, human RBCs loaded with acetamide
# Format: cell-based
# study-conditions: Table 5, phthalazinamines; UT-B inhibitory potency
pEC50: −log10 of the molar value.
property-label: pEC50

For orientation, consider the following solved cases.
Cc1ccc(Nc2nnc(-c3ccc(C(N)=O)cc3)c3ccccc23)cc1 :: 6.70
CNC(=O)COc1ccc(Nc2nnc(-c3ccc(C)c(S(N)(=O)=O)c3)c3ccccc23)cc1 :: 5.00

a: CCN(CC)C(=O)c1ccc(-c2nnc(Nc3ccc(C(=O)NC)cc3)c3ccccc23)cc1
b: CN(C)C(=O)c1ccc(Nc2nnc(-c3ccc(C(N)=O)cc3)c3ccccc23)cc1
Name the one with the greater pEC50 value, either a or b as given. I would appreciate it if you answered with the label of your choice.
b

a: Cc1ccc(-c2nnc(Nc3ccc(OCC(N)=O)cc3)c3ccccc23)cc1S(=O)(=O)N(C)C
b: Cc1ccc(-c2nnc(Nc3ccc(C(N)=O)cc3)c3ccccc23)cc1S(N)(=O)=O
Name the one with the greater pEC50 value, either a or b as given. I would appreciate it if you answered with the label of your choice.
a
(a: 5.70, b: 5.30)

* * *

# study-system: UT-B (Homo sapiens)
# Construct: the indicator cells are red blood cells that endogenously express the UT-B urea transporter; endogenous in cells; host or cells: human red blood cells (whole venous blood, single donor)
# Sequence (Q13336 1-389): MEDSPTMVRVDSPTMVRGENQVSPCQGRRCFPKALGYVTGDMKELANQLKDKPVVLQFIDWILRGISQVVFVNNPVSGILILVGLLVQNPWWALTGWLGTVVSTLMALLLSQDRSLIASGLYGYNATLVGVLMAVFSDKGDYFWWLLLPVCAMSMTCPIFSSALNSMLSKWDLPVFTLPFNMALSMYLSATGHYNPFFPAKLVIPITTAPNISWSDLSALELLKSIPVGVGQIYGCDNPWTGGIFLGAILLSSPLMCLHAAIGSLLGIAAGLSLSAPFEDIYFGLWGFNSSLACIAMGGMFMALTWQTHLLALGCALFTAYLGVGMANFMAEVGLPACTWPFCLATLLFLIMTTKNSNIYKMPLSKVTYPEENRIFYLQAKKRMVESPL
# experimental-details: RBC lysis assay, human RBCs loaded with acetamide
# Type: cell-based
# study-conditions: Table 7, aminobenzimidazoles; UT-B inhibitory potency
pEC50: −log10 of the molar value.
property-label: pEC50

CCN(CC)CCn1c(NCc2ccccc2O)nc2ccccc21 :: 6.10
Oc1ccccc1CNc1nc2ccccc2n1CCN1CCOCC1 :: 5.22
Cc1ccc(O)c(CNc2nc3ccccc3n2C(C)C)c1 :: 6.00

P: CCCn1c(NCc2cc(C)ccc2O)nc2ccccc21
Q: CCn1c(NCc2cccc(OC)c2O)nc2ccccc21
Name the one with the greater pEC50 value, either P or Q as given. I would appreciate it if you answered with the label of your choice.
P
(P: 6.00, Q: 4.96)
